system name: native CD81 on Raji cells (Homo sapiens, UniProt P60033)
Construct: endogenous in cells; host or cells: Raji (human B cell line)
Sequence (P60033 whole entry): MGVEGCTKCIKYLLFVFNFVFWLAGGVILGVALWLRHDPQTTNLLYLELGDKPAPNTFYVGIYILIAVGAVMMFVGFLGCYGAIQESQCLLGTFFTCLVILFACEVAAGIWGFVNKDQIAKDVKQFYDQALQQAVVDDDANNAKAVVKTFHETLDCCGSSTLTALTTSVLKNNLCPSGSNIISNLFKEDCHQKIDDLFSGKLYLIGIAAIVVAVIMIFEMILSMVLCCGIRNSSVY
test: Competition assay: inhibition of FITC-labeled JS-81 anti-CD81 antibody binding to native CD81 on live Raji cells (flow cytometry)
Assay type: cell-based
condition summary: 100 μM ligand
Property: Inhibition of JS-81 Binding (%); scope: individual compounds
# output: bare number, implied unit %

[
  {
    "compound": "CNC1(C(N)=O)CCNCC1",
    "system name": "native CD81 on Raji cells (Homo sapiens, UniProt P60033)",
    "Inhibition of JS-81 Binding (%)": 0
  }
]

The observed Inhibition of JS-81 Binding (%) for c1cncc(C2CCCCN2)c1 (stereo not drawn) when tested with native CD81 on Raji cells (Homo sapiens, UniProt P60033) stands at 6

The observed Inhibition of JS-81 Binding (%) for "CCC(C)(C)c1ccc(Oc2cccc(C(=O)O)c2)cc1" when tested with native CD81 on Raji cells (Homo sapiens, UniProt P60033) stands at 0
